log10 IC50 overview
System: Plasmodium falciparum
Measurement description: Antimalarial activity against chloroquine-sensitive Plasmodium falciparum D6 assessed as inhibition of [3H]hypoxanthine incorporation after 96 hrs by microtiter plate scintillation counting
Type: functional, organism-based
Could you please treat all values as log10 of IC50 in nM?

Would you please look over these solved cases?
Q: // returns reported log10 IC50 for input `CC[C@H]1OC(=O)[C@H](C)[C@@H](O[C@H]2C[C@@](C)(OC)[C@@H](O)[C@H](C)O2)[C@H](C)[C@@H](O[C@@H]2O[C@H](C)C[C@H](N(C)C)[C@H]2O)[C@](C)(O)C[C@@H](C)CN(CCCNC(=S)NC(C)C)[C@H](C)[C@@H](O)[C@]1(C)O`
A: 3.42

Q: Next compound: CC[C@H]1OC(=O)[C@H](C)[C@@H](O[C@H]2C[C@@](C)(OC)[C@@H](O)[C@H](C)O2)[C@H](C)[C@@H](O[C@@H]2O[C@H](C)C[C@H](N(C)C)[C@H]2O)[C@](C)(O)C[C@@H](C)CN(CCCNC(=S)NC2CC3C=CC2C3)[C@H](C)[C@@H](O)[C@]1(C)O (some centres not stated)
A: 2.48

More entries:
Q: // returns reported log10 IC50 for input `CC[C@H]1OC(=O)[C@H](C)[C@@H](O[C@H]2C[C@@](C)(OC)[C@@H](O)[C@H](C)O2)[C@H](C)[C@@H](O[C@@H]2O[C@H](C)C[C@H](N(C)C)[C@H]2O)[C@](C)(O)C[C@@H](C)CN(CCCNC(=S)Nc2ccc(Br)cc2)[C@H](C)[C@@H](O)[C@]1(C)O`
A: 2.42

Q: Next compound: `CC[C@H]1OC(=O)[C@H](C)[C@@H](O[C@H]2C[C@@](C)(OC)[C@@H](O)[C@H](C)O2)[C@H](C)[C@@H](O[C@@H]2O[C@H](C)C[C@H](N(C)C)[C@H]2O)[C@](C)(O)C[C@@H](C)CN(CCCNC(=S)NC(c2ccccc2)c2ccccc2)[C@H](C)[C@@H](O)[C@]1(C)O`
A: 2.34

Q: Next compound: `CC[C@H]1OC(=O)[C@H](C)[C@@H](O[C@H]2C[C@@](C)(OC)[C@@H](O)[C@H](C)O2)[C@H](C)[C@@H](O[C@@H]2O[C@H](C)C[C@H](N(C)C)[C@H]2O)[C@](C)(O)C[C@@H](C)CN(CCCNC(=S)Nc2ccc(OC(F)F)cc2)[C@H](C)[C@@H](O)[C@]1(C)O`
A: 2.33

Q: Next compound: `CC[C@H]1OC(=O)[C@H](C)[C@@H](O[C@H]2C[C@@](C)(OC)[C@@H](O)[C@H](C)O2)[C@H](C)[C@@H](O[C@@H]2O[C@H](C)C[C@H](N(C)C)[C@H]2O)[C@](C)(O)C[C@@H](C)CN(CCCNC(=S)Nc2ccc(OC)cc2)[C@H](C)[C@@H](O)[C@]1(C)O`
A: 2.68

Q: Next compound: `CC[C@H]1OC(=O)[C@H](C)[C@@H](O[C@H]2C[C@@](C)(OC)[C@@H](O)[C@H](C)O2)[C@H](C)[C@@H](O[C@@H]2O[C@H](C)C[C@H](N(C)C)[C@H]2O)[C@](C)(O)C[C@@H](C)CN(CCCNC(=O)Nc2ccc(F)c(F)c2)[C@H](C)[C@@H](O)[C@]1(C)O`
A: 2.48
